- Test system: Yap1 mRNA
- Experiment Notes: Antisense inhibition of human Yap1 in SNU-449 cells by modified oligonucleotides, single dose (Example 5, RTS36584)
- Format: cell-based
- Cond: Table 48; Yap1 mRNA level relative to untreated control; modified oligonucleotides targeting SEQ ID NO.: 1 and 2
Strand notation (5' to 3'): a small letter for the sugar, then the base; units joined by * are phosphorothioate-linked, units joined directly phosphodiester-linked; [ ] holds rarer units or linkages, { } end groups; capitals alone tell only the bases. e = 2'-O-(2-methoxyethyl) (MOE); k = constrained ethyl (cEt); [5mC] = 5-methylcytosine; d = 2'-deoxy (DNA)
The following substances are shown together with reported YAP1 (% UT) values.
Please reply with the bare figure in % UT and do not write the unit itself.

Input: Entry 1198286 (kA*kA*kT*dT*dG*dT*d[5mC]*dT*d[5mC]*dA*dT*dG*k[5mC]*e[5mC]*kT*eT; antisense) [Compound 1198286] has what YAP1 (% UT)?
Output: 17

Input: // query YAP1 (% UT) value for entry 1198319 (k[5mC]*kT*kT*dT*dG*dG*dA*dA*dG*dA*dT*d[5mC]*kT*eG*kA*eA; antisense) [Compound 1198319]
Output: 47

Below: the item to evaluate.
Input: What does the data say about its YAP1 (% UT)? Entry: 1009396 (k[5mC]*kA*k[5mC]*dT*dG*dA*dG*dG*dT*dA*dT*dA*dA*k[5mC]*kT*kG; antisense) [Compound 1009396]
Output: 41

src = patent US11214803B2
